Answer each item with its documented Activity.
test system: Mus musculus; experiment: Neurotoxicity in ip dosed albino CF1 mouse assessed as minimum drug concentration required for motor impairment in half or more of mouse after 0.5 hrs by rotarod test; type: toxicity, organism-based; conditions: in vivo
Answers are plain numbers, in mg/kg.

Past entries and their recorded results:
Entry `O=c1snc(Nc2ccncc2)n1-c1ccncc1` , tested on Mus musculus, has a reported Activity of 100

Entry `c1cc(Nc2nsc(Nc3ccncc3)n2)ccn1` , tested on Mus musculus, has a reported Activity of 100

Entry `O=c1snc(Nc2cccnc2)n1-c1cccnc1` , tested on Mus musculus, has a reported Activity of 100

Entry `c1ccc(Nc2nsc(Nc3ccccn3)n2)nc1` , tested on Mus musculus, has a reported Activity of 100

Hi there! I need Activity for each item below, if you can.
1. O=c1snc(Nc2ccccn2)n1-c1ccccn1
2. O=c1snc(Nc2cccc3ccccc23)n1-c1cccc2ccccc12
3. c1ccc2c(Nc3nsc(Nc4cccc5ccccc45)n3)cccc2c1
4. Fc1ccc(Nc2nsc(Nc3ccc(F)cc3)n2)cc1
5. NC(=O)N1c2ccccc2C=Cc2ccccc21 [CARBAMAZEPINE]
6. O=C1NC(=O)C(c2ccccc2)(c2ccccc2)N1

[100, 300, 300, 100, 100, 100]

Hi there! I need Activity for each item below, if you can.
1. CCOc1ccc(Nc2nsc(=O)n2-c2ccc(OCC)cc2)cc1
2. O=c1snc(Nc2ccc(F)cc2)n1-c1ccc(F)cc1

300
300

* * *

test system: Mus musculus; assay: Neurotoxicity in ip dosed albino CF1 mouse assessed as minimum drug concentration required for motor impairment in half or more of mouse after 0.5 hrs by rotarod test; type: toxicity, organism-based; details: in vivo
Answer each item with its documented Activity.
Give bare numbers, in mg/kg.

Past entries and their recorded results:
Briefly, Activity measured for `c1cncc(Nc2nsc(Nc3cccnc3)n2)c1` : 100

Briefly, Activity measured for `CCOc1ccc(Nc2nsc(Nc3ccc(OCC)cc3)n2)cc1` : 300

# context switch: different compound, same Activity
Briefly, Activity measured for `c1cnc(Nc2nsc(Nc3ncccn3)n2)nc1` : 300

* * *

system: Mus musculus; assay: Neurotoxicity in ip dosed albino CF1 mouse assessed as minimum drug concentration required for motor impairment in half or more of mouse after 4 hrs by rotarod test; type: toxicity, organism-based; conditions: in vivo
reported-metric: Activity (mg/kg)
Answers are plain numbers, in mg/kg.

Briefly, Activity measured for `CCOc1ccc(Nc2nsc(=O)n2-c2ccc(OCC)cc2)cc1` : 300

Hi there! I need Activity for each item below, if you can.
1. NC(=O)N1c2ccccc2C=Cc2ccccc21 [CARBAMAZEPINE]
2. CCOc1ccc(Nc2nsc(Nc3ccc(OCC)cc3)n2)cc1
3. O=C1NC(=O)C(c2ccccc2)(c2ccccc2)N1

1: 300; 2: 300; 3: 100

Ref: ChEMBL document CHEMBL1138557
